- assay.comment: Toxicity liver stage against HepG2, at 10uM
- Assay type: cell-based
- Design: test concentration 10 uM, cell line HepG2-A16-CD81EGFP
- condition.details: human, HepG2-A16-CD81EGFP cells; read-out: INHIBITION
measured.parameter: cytotoxicity at 10 µM (%)
Answer in %, number only, no unit symbol.

1. O=C(CCc1cc2n(n1)CCCN(Cc1ccccc1F)C2)NC1CC1
-12.8

[ask] Looking for the measured cytotoxicity at 10 µM of CS(=O)(=O)N1C[C@H]2CC[C@@H](C1)N(Cc1cscn1)C2=O , can you help?
[reply] -9.35

[ask] Looking for the measured cytotoxicity at 10 µM of CN1C(=O)CCN(C(=O)C2CC=CC2)c2ccccc21 , can you help?
[reply] 8.96

[ask] Looking for the measured cytotoxicity at 10 µM of CN1CC(=O)N(c2ccsc2)CC12CCN(C(=O)c1ccccc1)C2 (centres undefined) , can you help?
[reply] -0.516

[ask] Looking for the measured cytotoxicity at 10 µM of O=C(COCC1CC1)N1CCCC1c1nc(-c2ccccc2F)c[nH]1 (centres undefined) , can you help?
[reply] -0.025

[ask] Looking for the measured cytotoxicity at 10 µM of CC(=O)N(Cc1ncc(C)o1)C1CCN(CCCc2cnn(C)c2)C1 (centres undefined) , can you help?
[reply] 8.11

[ask] Looking for the measured cytotoxicity at 10 µM of Cc1cc(NC(=O)Cn2ncc(SCC(N)=O)c(Cl)c2=O)ccc1Br , can you help?
[reply] 15.3

[ask] Looking for the measured cytotoxicity at 10 µM of O=C(CC1CC1)NC[C@]12COC[C@H]1CN(c1ncccn1)C2 , can you help?
[reply] -142

[ask] Looking for the measured cytotoxicity at 10 µM of O=C1CCC(=O)N1CCN1CCN(c2cc(F)ccc2F)CC1 , can you help?
[reply] 9.44

----------
This section presents compounds with their documented cytotoxicity at 10 µM values.
- assay.comment: Toxicity liver stage against HepG2, at 10uM
- Type: cell-based
- Set-up: test concentration 10 uM, cell line HepG2-A16-CD81EGFP
- condition.details: human, HepG2-A16-CD81EGFP cells; read-out: INHIBITION

1. CC(C)NC(=O)c1cc(-c2ccc(S(C)(=O)=O)cc2)nc2c1cnn2C
4.21%

[ask] Looking for the measured cytotoxicity at 10 µM of Cc1csc(CNC(=O)CCCc2cccs2)n1 , can you help?
[reply] -47.1%

[ask] Looking for the measured cytotoxicity at 10 µM of CN(Cc1nncn1C)c1nccc(C2CCCC2)n1 , can you help?
[reply] -1.14%

[ask] Looking for the measured cytotoxicity at 10 µM of CC(C)C(C(=O)N1CCCN(c2nccs2)CC1)n1cncn1 (configuration not stated) , can you help?
[reply] -4.98%

[ask] Looking for the measured cytotoxicity at 10 µM of O=C(NC1CCC1)[C@@H]1CCO[C@@H]2CCN(C3CCCC3)C[C@@H]21 , can you help?
[reply] 11.4%

----------
This section presents compounds with their documented cytotoxicity at 10 µM values.
- assay.comment: Toxicity liver stage against HepG2, at 10uM
- Format: cell-based
- Set-up: test concentration 10 uM, cell line HepG2-A16-CD81EGFP
- condition.details: human, HepG2-A16-CD81EGFP cells; read-out: INHIBITION
Answer in %, number only, no unit symbol.

1) CN(C(=O)Cc1c[nH]c2ccccc12)C1CCN(c2ccccn2)CC1
9.36
2) CC(Cn1ccnc1)NC(=O)NCCc1ccc2c(c1)OCCO2 (stereo unspecified)
-1.35
3) COCC(=O)N1CCc2[nH]nc(-c3ccc4c(c3)OCO4)c2C1
-137
4) CCO[C@@H]1CC[C@H]2[C@H]1OCCN2CC1CCOCC1
10.8
5) O=C1CC(c2ccsc2)c2cnn(C3CCCC3)c2N1 (stereo unspecified)
-0.524

[ask] Looking for the measured cytotoxicity at 10 µM of Cc1cc(NC(=O)CN2CCn3c(nnc3C(C)C)C2)no1 , can you help?
[reply] -1.11

[ask] Looking for the measured cytotoxicity at 10 µM of CC(NC(=O)NCCCn1cccn1)c1ccc2c(c1)NC(=O)CO2 (stereo unspecified) , can you help?
[reply] -5.07

[ask] Looking for the measured cytotoxicity at 10 µM of COc1cccc(CC(C)NC(=O)NCc2ccn(C)c2)c1 (stereo unspecified) , can you help?
[reply] 0.166
